attributeMeasured: melting point

molecule: Cc1c(Cl)cccc1S(=O)(=O)NCC12CC3CC(CC(C3)C1)C2 [STX1370]
experimentalValue: 183 to 184 °C
--
molecule: COC(=O)Cc1ccc(OCC(=O)C23CC4CC(CC(C4)C2)C3)cc1 [STX2320]
experimentalValue: 71.9 °C
--
molecule: O=C(CS(=O)(=O)Cc1cccs1)C12CC3CC(CC(C3)C1)C2 [STX2299]
experimentalValue: 95.5 to 98 °C

---

Molecular target: Human 11β-HSD1 (Homo sapiens)
Sequence (P28845 whole entry): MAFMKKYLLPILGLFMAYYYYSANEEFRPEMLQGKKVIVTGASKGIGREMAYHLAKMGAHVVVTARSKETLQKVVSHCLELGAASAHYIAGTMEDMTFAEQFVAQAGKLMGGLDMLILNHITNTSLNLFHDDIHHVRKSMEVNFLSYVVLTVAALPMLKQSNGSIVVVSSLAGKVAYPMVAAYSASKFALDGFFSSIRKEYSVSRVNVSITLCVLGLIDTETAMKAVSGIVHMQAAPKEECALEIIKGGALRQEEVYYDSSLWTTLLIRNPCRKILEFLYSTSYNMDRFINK
Assay: 11β-HSD1 HEK assay (whole HEK 293 cells stably transfected with HSD11B1, SPA)
Assay type: cell-based
Set-up: expressed in transfected cells; host or cells: HEK 293
Settings: HEK293, read-out: % INHIBITION of Human 11 β-HSD1 at 10 μM (HEK)
inhibition at 10 µM values for the compounds below.

compound: CC1(C(=O)NCc2cccs2)CC1
assayedSystem: Human 11β-HSD1 (Homo sapiens)
inhibition at 10 µM: 20 to 60%
--
compound: CN(Cc1cccs1)C(=O)C1(c2ccc(Cl)cc2)CCCC1
assayedSystem: Human 11β-HSD1 (Homo sapiens)
inhibition at 10 µM: > 60%
--
compound: O=C(CC12CC3CC(CC(C3)C1)C2)NCc1ccccn1
assayedSystem: Human 11β-HSD1 (Homo sapiens)
inhibition at 10 µM: 20 to 60%
--
compound: O=C(CS(=O)(=O)Cc1ccc(Cl)cc1)C12CC3CC(CC(C3)C1)C2
assayedSystem: Human 11β-HSD1 (Homo sapiens)
inhibition at 10 µM: > 60%
--
compound: O=C(NCc1cccs1)[C@H]1CC2C=CC1C2 (some centres unmarked)
assayedSystem: Human 11β-HSD1 (Homo sapiens)
inhibition at 10 µM: 20 to 60%
